Test: Selectivity index, ratio of CC50 for human MT4 cells to EC50 for HIV1 3B infected in human MT4 cells
Type: toxicity, cell-based
Conditions: MT4 cells (uninfected for CC50; HIV-1 3B infected for EC50)
quantity-measured: selectivity ratio
Please give the numeric answer without any surrounding text.

O=c1ccn(CCOc2ccccc2)c(=O)n1Cc1ccccc1    20
Cc1ccc(OCCn2ccc(=O)n(Cc3ccccc3)c2=O)cc1    17
N#Cc1ccc(OCCn2ccc(=O)n(Cc3ccccc3)c2=O)cc1    3.9

Name the recorded selectivity ratio for Cc1cccc(OCCn2ccc(=O)n(Cc3ccccc3)c2=O)c1 . 6.7

Queued: Cc1cc(C)cc(Cn2c(=O)ccn(C/C=C/c3ccccc3)c2=O)c1 202

Queued: Cc1ccc(OCCn2ccc(=O)n(C(C)c3ccccc3)c2=O)cc1 (stereo unspecified) 20

Queued: Cc1cc(Br)cc(Cn2c(=O)ccn(C/C=C/c3ccccc3)c2=O)c1 73

Queued: O=c1ccn(C/C=C/c2ccccc2)c(=O)n1Cc1cc(F)cc(F)c1 4

Queued: O=c1ccn(C/C=C/c2ccccc2)c(=O)n1Cc1ccccc1 20

Queued: O=c1ccn(C/C=C/c2ccccc2)c(=O)n1Cc1cc(Br)cc(Br)c1 134
